The measured values listed here are drawn from PubChem BioAssay AID2717.

Would you kindly list inhibition for each of these compounds?
test: cancer stem cell viability inhibitors, primary screen, luminescence (AID 2717); conditions: cancer stem cell-like cells viability, at 7.5 µM, active compounds read high
Among all 300,000 compounds or so, about 3,200 (1.1%) were called active. The sample holds actives, similar compounds and a random draw of the others, so the mix is not that of the screen.
Unit % implied. Number only.

*Q* // lookup inhibition for `Cc1ccc(OCc2nc3ccccc3n2C)cc1`
*A* -4.74

*Q* // lookup inhibition for `COc1ccc(C(=O)NCc2ccccc2C)cc1S(=O)(=O)NC1CCCC1`
*A* 0.604

*Q* // lookup inhibition for `CCOc1cccc(/C=C/c2ccc3ccccc3n2)c1OC(C)=O`
*A* 64.6

*Q* // lookup inhibition for `O=C(Oc1ccc(Br)cc1)c1cccnc1`
*A* 4.5

*Q* // lookup inhibition for `N#CCc1ccc(OC(=O)c2cccnc2)cc1`
*A* 9.72

*Q* // lookup inhibition for `COc1cc(C(=O)OCc2cc(=O)n3ccsc3n2)ccc1OC(C)C`
*A* -20.6

*Q* // lookup inhibition for `C[C@H](CO)N1C[C@H](C)[C@@H](CN(C)C(=O)Nc2ccc3c(c2)OCO3)Oc2c(cccc2N(C)C)C1=O`
*A* -12.1

*Q* // lookup inhibition for `COc1cccc(/C=C/c2ccc3ccccc3n2)c1OC(C)=O`
*A* 104

*Q* // lookup inhibition for `COc1cccc(NC(=O)COc2cccnc2[N+](=O)[O-])c1`
*A* -14.1

*Q* // lookup inhibition for `C=CC[C@@H](CC(=O)N[C@H](CO)Cc1ccccc1)C(=O)N[C@H](C)COC(=O)[C@@H](CC=C)Cc1ccc(F)cc1`
*A* -14.7

*Q* // lookup inhibition for `COc1cccc(OCC(=O)Nc2ccccc2C(N)=O)c1`
*A* -7.15

* * *

experiment: cancer stem cell viability inhibitors, primary screen, luminescence (AID 2717); details: cancer stem cell-like cells viability, at 7.5 µM
The whole screen tested about 300,000 compounds, of which about 3,200 (1.1%) were called active. No stated cut-off is given here; in the data, active means inhibition above about 75%; inconclusive means no clear call, values can overlap the other calls; inactive means below that; tested in HMLE shEcad cells. What follows is part of a selection rich in actives, with near analogues and random picks from the rest.
Give one outcome, nothing more. List: active, inactive

*Q* Per the records of this test, what outcome belongs to `COC(=O)CSc1ncnc2c1cnn2-c1ccc(C)cc1C` ?
*A* inactive

*Q* Per the records of this test, what outcome belongs to `COc1ccccc1N1CCN(C(=O)CSc2ncnc3c2cnn3-c2ccc(C)c(C)c2)CC1` ?
*A* active

*Q* Per the records of this test, what outcome belongs to `O=C(Cc1ccc(Cl)c(Cl)c1)Nc1ccc(SC(F)F)cc1` ?
*A* active

*Q* Per the records of this test, what outcome belongs to `Cc1csc(=O)n1CC(=O)Nc1ccc(S(C)(=O)=O)cc1` ?
*A* inactive

*Q* Per the records of this test, what outcome belongs to `CC(=O)N1CCN(CC(=O)Nc2ccc(SC(F)F)cc2)CC1` ?
*A* inactive

*Q* Per the records of this test, what outcome belongs to `COc1ccccc1N1CCN(C(=O)CSc2nnc(-c3ccoc3C)o2)CC1` ?
*A* inactive

* * *

assay: cancer stem cell viability inhibitors, primary screen, luminescence (AID 2717); details: cancer stem cell-like cells viability, at 7.5 µM, active compounds read high
Hit rate of the full screen: of about 300,000 compounds, about 3,200 (1.1%) were called active. What follows is part of a selection rich in actives, with near analogues and random picks from the rest.
Parameter Measured: inhibition (%)
Unit % implied. Number only.

*Q* // lookup inhibition for `CCOc1ncccc1C(=O)Nc1ccc2c(c1)OCCO2`
*A* -12.8

*Q* // lookup inhibition for `Nn1c(SCC(=O)Nc2ccc3c(c2)CCC3)nnc1C1CC1`
*A* -6.39

*Q* // lookup inhibition for Cc1nnc(N/N=C/C2CC=CCC2)[nH]c1=O (stereo unspecified)
*A* 9.52

*Q* // lookup inhibition for `CC(=O)c1c(OCC(=O)N(C)C2CCCCC2)ccc2c(C)cc(=O)oc12`
*A* -10.2

*Q* // lookup inhibition for `CCCCCCC(=O)Nc1nc(C)c(-c2csc(Nc3cc(Cl)ccc3OC)n2)s1`
*A* 5.64

*Q* // lookup inhibition for `Cc1c(CC(=O)NCCCCCC(=O)O)c(=O)oc2cc3occ(-c4ccccc4)c3cc12`
*A* -4.15

*Q* // lookup inhibition for CC1CCCCC1NC(=O)Cn1c(=O)cnc2ccccc21 (stereo unspecified)
*A* 0.34

*Q* // lookup inhibition for `CN(Cc1ccccc1)C(=O)COC(=O)/C=C/c1ccc2c(c1)OCO2`
*A* -12

*Q* // lookup inhibition for `CCCCC(=O)Nc1nc(C)c(-c2csc(Nc3ccc(Cl)cc3)n2)s1`
*A* 63.1

*Q* // lookup inhibition for `COc1cc(OC)c(C(=O)NNC(=O)c2ccccc2-n2cccc2)cc1OC`
*A* 17.7

*Q* // lookup inhibition for `O=C(COc1ccc(Br)cc1F)NCC1(N2CCCCC2)CCCCC1`
*A* 1.3
